molecular target: Mitogen-activated protein kinase kinase kinase 2 (Homo sapiens) (UniProt Q9Y2U5); assay: modulators of MEK5 binding to wildtype MEKK2, primary screen, biochemical, multiplex bead flow cytometry, Alexa488-MEK5 (AID 1531); conditions: Alexa488-MEK5 binding to MEKK2 WT, at 10 µM, actives lie on both sides
Hit rate of the full screen: of about 290,000 compounds, about 3,300 (1.1%) were called active. Cut-off read from the data, not from the text of the source: active = binding response below about 67% or above about 130%; inconclusive = no clear call, values can overlap the other calls; inactive = in between. The full list was thinned out, with actives kept by preference.
Hi there, use one of these labels in your reply, thanks! active, inactive

Answered examples (3):
{"COMPOUND": "CCCNC(=O)NCc1ccc(N2CCCC2=O)cc1", "CLASS_LABEL": "inactive"}
{"COMPOUND": "CCOc1ccc(S(=O)(=O)N(CC(=O)O)c2ccccc2)cc1", "CLASS_LABEL": "active"}
{"COMPOUND": "O=C(CN1C(=O)c2cccnc2Oc2ccc(Cl)cc21)NCCc1ccccc1", "CLASS_LABEL": "inactive"}

// param item: "NC(N)=N/N=C/c1ccc(Cl)c([N+](=O)[O-])c1" ; yields the recorded call
inactive

What did this assay record as the result for "CCOc1ccc(NC(=O)NNC(=O)c2ccc(Cl)cc2Cl)cc1" ?
inactive

Short answer needed: outcome of this test for OC(CNCC1CCCO1)Cn1c2ccc(Br)cc2c2cc(Br)ccc21 (stereo unspecified) ?
active

Just curious, what result did "CC(=O)c1cccc(NC(=O)CN2C(=O)c3cccnc3Oc3ccc(Cl)cc32)c1" get here?
active

Hi team, can someone confirm the assay call for O=C(CSc1ccc(-c2ccc(Br)cc2)nn1)NCC1CCCO1 (stereo unspecified) ?
inactive

Kindly provide the recorded test outcome for the following compound: "Cc1ccc2c(c1)N(CC(=O)NCCc1ccc(Cl)cc1)C(=O)c1cccnc1O2"
inactive

Status in this test for "Cc1ccc2c(c1)N(CC(=O)N1CCC(C)CC1)C(=O)c1cccnc1O2" ?
inactive

In this assay, the call recorded for "CCOc1ccc(N(CC(=O)NCCc2ccc(F)cc2)S(=O)(=O)c2ccccc2)cc1" was what?
inactive
